- Experimental Target: LIMK2KD (Homo sapiens, UniProt P53671)
- Construct: The cDNA coding for LIMK2 residues 330 to 632 was PCR amplified; His6 (N, cleaved yes); made in house; host or cells: baculovirus; Sf9 for virus, TriEx insect cells for expression
- Sequence (P53671 330-632): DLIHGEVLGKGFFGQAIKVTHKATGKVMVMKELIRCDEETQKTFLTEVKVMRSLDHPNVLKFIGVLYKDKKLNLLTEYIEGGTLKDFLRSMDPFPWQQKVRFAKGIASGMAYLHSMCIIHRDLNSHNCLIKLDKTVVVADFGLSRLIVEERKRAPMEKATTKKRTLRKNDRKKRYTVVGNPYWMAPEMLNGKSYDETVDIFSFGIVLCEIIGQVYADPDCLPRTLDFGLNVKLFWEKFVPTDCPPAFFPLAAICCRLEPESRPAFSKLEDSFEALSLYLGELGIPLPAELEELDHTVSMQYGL
- Method Notes: Differential (dynamic) scanning fluorimetry (DSF) assay, LIMK2KD
- Assay type: binding
- Measurement Parameters: LIMK2KD, compound 10 µM, single shot
Lab note: compare TM Shift LIMK2 (K) with 1 K, writing 1 if less and -1 if equal or more.

CCn1c(N)c(C(=O)NC)c(=O)c2ccc(C#C[C@@](C)(O)COC)nc21 [SAR131675] :: -1
COc1cc(N2CCC(N)CC2)ccc1Nc1ncc(Cl)c(-c2c[nH]c3ccccc23)n1 [AZD3463] :: -1
Cc1cc(C)nc(NS(=O)(=O)c2ccc(NC(=S)NC(=O)COc3ccc(Br)cc3Cl)cc2)n1 [ZCL278] :: -1
Cc1cc(C(C)Nc2ccccc2)c2nc(N3CCOCC3)cc(=O)n2c1 (stereo not drawn) [TGX-221] :: 1
Clc1ccc(C2(c3ccc(-c4cn[nH]c4)cc3)CCNCC2)cc1 [AT7867] :: -1

Query: I wonder whether CC(C)(C)c1cc(C=C(C#N)C#N)cc(C(C)(C)C)c1O [Tyrphostin 9] has TM Shift LIMK2 (K) below 1 K. Can you tell?
Result: -1

----------
- Experimental Target: LIMK1KD (Homo sapiens)
- Construct: His6 (N, cleaved yes); made in house; host or cells: baculovirus; Sf9 for virus, TriEx insect cells for expression
- Sequence (P53667 330-637): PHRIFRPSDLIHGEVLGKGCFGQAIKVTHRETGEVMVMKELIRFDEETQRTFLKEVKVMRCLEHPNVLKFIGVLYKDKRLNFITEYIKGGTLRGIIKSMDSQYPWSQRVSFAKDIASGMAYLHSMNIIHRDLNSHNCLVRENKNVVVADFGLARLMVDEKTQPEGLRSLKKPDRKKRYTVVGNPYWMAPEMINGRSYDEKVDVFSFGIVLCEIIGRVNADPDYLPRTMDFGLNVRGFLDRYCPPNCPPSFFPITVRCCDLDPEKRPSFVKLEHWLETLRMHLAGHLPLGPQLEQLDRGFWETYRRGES
- Method Notes: Differential (dynamic) scanning fluorimetry (DSF) assay, LIMK1KD
- Type: binding
- Measurement Parameters: 2 µM LIMK1KD, compound 10 µM, single shot; read-out: TM Shift LIMK1 (K)
So basically: ΔTm at 10 µM at 1 °C or higher? That is Fulfilled. Lower than 1 °C? That is Not fulfilled.

O=C(c1ccc(/C=C/c2n[nH]c3ccccc23)cc1)N1CCNCC1 :: Fulfilled
N#CC1(c2ccc(NC(=O)c3cccnc3NCc3ccncc3)cc2)CCCC1 :: Not fulfilled
CC(C)n1nc(-c2ccc3oc(N)nc3c2)c2c(N)ncnc21 :: Fulfilled
O=c1ncn2nc(Sc3ccc(F)cc3F)ccc2c1-c1c(Cl)cccc1Cl :: Not fulfilled
O=c1cc(-c2cccc3c2Sc2ccccc2S3)oc(N2CCOCC2)c1 :: Not fulfilled

Query: Tell me whether ΔTm at 10 µM is at least 1 °C here: CCn1cc(-c2ccnc3[nH]c(-c4cccc(CN(C)C)c4)cc23)c(-c2ccc(NC(=O)N(C)C)cc2)n1
Result: Fulfilled

Query: Quick check: does CCN(CC)CCNC(=O)c1c(C)[nH]c(/C=C2\C(=O)Nc3ccc(F)cc32)c1C have ΔTm at 10 µM greater than or equal to 1 °C?
Result: Fulfilled

Query: Decide: ΔTm at 10 µM of N#CC[C@@H](C1CCCC1)n1cc(-c2ncnc3[nH]ccc23)cn1 >= 1 °C?
Result: Not fulfilled

----------
Entries and their ΔTm at 10 µM values follow.
- Experimental Target: LIMK2KD (Homo sapiens)
- Construct: The cDNA coding for LIMK2 residues 330 to 632 was PCR amplified; His6 (N, cleaved yes); made in house; host or cells: baculovirus; Sf9 for virus, TriEx insect cells for expression
- Method Notes: Differential (dynamic) scanning fluorimetry (DSF) assay, LIMK2KD
- Type: binding
- Measurement Parameters: LIMK2KD, compound 10 µM, single shot; read-out: TM Shift LIMK2 (K)

Cn1cnc2c(F)c(Nc3ccc(Br)cc3Cl)c(C(=O)NOCCO)cc21 [Selumetinib (AZD6244), Selumetinib] :: 0.6 °C

Query: Item under review: CC(C)(C)NS(=O)(=O)c1cncc(-c2cc(F)c3nc(N)nn3c2)c1 [CZC24832] . Reported ΔTm at 10 µM?
Result: -0.1 °C

Query: Look up ΔTm at 10 µM: Cc1ccc(-n2nc(C(C)(C)C)cc2NC(=O)Nc2ccc(OCCN3CCOCC3)c3ccccc23)cc1 [Doramapimod]
Result: 0.9 °C

Query: Can you share its ΔTm at 10 µM? I mean this compound: C=CCc1ccc(O)c(-c2ccc(O)c(CC=C)c2)c1 [Honokiol]
Result: 1.7 °C
